Test system: Rel hydrolase (HD)
protocolDetails: Inhibition of Rel hydrolase activity: decrease of radioactive (p)ppGpp spot on TLC
Assay type: biochemical
measurementContext: radioactive (p)ppGpp incubated with enzyme, with vs without compound
Procedure: As indicated above, the “Yes/No” in the 5th and 6th columns of TABLES A to F indicates whether there is, or respectively is not an inhibition of the synthetase (ST) and/or hydrolase (HD) activity. […] The action of a candidate compound is evaluated based on its effect on the production of (p)ppGpp. […]
measurementLabel: HD (inhibition of the hydrolase activity)

Use the examples below as a reference point.
Cc1ccc(Nc2nc(N/N=C/c3cc(Cl)ccc3O)nc(Nc3ccc([N+](=O)[O-])cc3)n2)cc1C	No
O=C(O)CCCC(=O)Nc1cc2[nH]c(=O)[nH]c2cc1N1CCCC1	yes
Cc1ccccc1-n1c(SCC(=O)NC(=O)c2cccc([N+](=O)[O-])c2)nnc1-c1ccncc1	Yes
O=C(O)CCNS(=O)(=O)c1ccc2[nH]c(=O)[nH]c2c1	Yes
Cn1c(=O)[nH]c(=O)c2[nH]c(SCC(=O)O)nc21	Yes

Alright, here's another compound for you.
Query: Quick check: HD (inhibition of the hydrolase activity) of "CCN(CC)C(=O)CN1CCN(c2ccc(NC(=O)Cc3ccc(C)cc3)c(C(=O)O)c2)CC1" ?
Reply: Yes

###

Test system: Rel synthetase (ST)
protocolDetails: Inhibition of Rel synthetase activity: (p)ppGpp production from GDP or GTP and radioactive ATP, TLC
Assay type: biochemical
measurementContext: enzyme with GDP or GTP and radioactive ATP, absence or presence of compound
measurementLabel: ST (inhibition of the synthetase activity)

O=C(c1cc(-c2cccc(Cl)c2)[nH]n1)N1CCc2ccc([N+](=O)[O-])cc21 [Compound 30]	No
CCCCCCc1c(C)c2ccc(OCc3nnn[nH]3)cc2oc1=O [Compound 16]	Yes
O=C1c2cccc3cc([N+](=O)[O-])cc(c23)C(=O)N1O [Compound 50]	Yes
O=c1oc2cc(OCc3nnn[nH]3)ccc2cc1-c1ccc(Cl)cc1 [Compound 20]	Yes
O=[N+]([O-])c1ccccc1OCCn1nnc(-c2ccccc2)n1 [Compound 60]	No
O=C(Nc1ccc(Cl)c([N+](=O)[O-])c1)c1ccc(-c2cccc(Cl)c2Cl)o1 [Compound 68]	Yes

Query: May I ask what ST (inhibition of the synthetase activity) has been recorded for O=C(O)CNS(=O)(=O)c1ccc2c3c(cccc13)C(=O)N2 [Compound 48] ?
Reply: Yes

Query: Sample O=C(Nc1nnn[nH]1)c1ccc2c(Br)cccc2c1 [Compound 22] — what was its ST (inhibition of the synthetase activity)?
Reply: Yes

Query: Reported ST (inhibition of the synthetase activity) for O=C(O)/C=C/c1cccc(NC2C(=O)Nc3ccccc32)c1 (stereo not drawn) [Compound 31] : what is it?
Reply: No

###

System: Rel synthetase (ST)
protocolDetails: Inhibition of Rel synthetase activity: (p)ppGpp production from GDP or GTP and radioactive ATP, TLC
Assay type: biochemical
measurementContext: enzyme with GDP or GTP and radioactive ATP, absence or presence of compound
measurementLabel: ST (inhibition of the synthetase activity)

Examples with answers:
Cc1ccc(CC(=O)Nc2ccc(N3CCN(CC(=O)NC(C)(C)C)CC3)cc2C(=O)O)cc1	Yes
O=c1oc2cc(OCc3nnn[nH]3)ccc2cc1-c1ccc2ccccc2c1	Yes
O=C(O)CCNS(=O)(=O)c1cc2c3c(cccc3c1)C(=O)NC2=O	Yes
O=c1oc2cc(OCc3nnn[nH]3)ccc2cc1-c1ccc(F)cc1	Yes
Fc1cccc(-c2nnn(Cc3nnn[nH]3)n2)c1	No

Query: Param readout = ST (inhibition of the synthetase activity); param system = Rel synthetase (ST); param query = CC(Nc1ccc(F)cc1[N+](=O)[O-])c1ccc2[nH]c(=O)[nH]c2c1 (centres unmarked) ; response: value
Reply: No

Query: Notebook: pull reported ST (inhibition of the synthetase activity) for Rel synthetase (ST), entry "O=C1Nc2ccccc2/C1=N\c1ccc(O)c([N+](=O)[O-])c1"
Reply: Yes

Query: State its ST (inhibition of the synthetase activity) on Rel synthetase (ST): "Cc1ccccc1-n1c(SCC(=O)NC(=O)c2cccc([N+](=O)[O-])c2)nnc1-c1ccncc1"
Reply: No

Query: GET /values?readout=ST (inhibition of the synthetase activity)&system=Rel synthetase (ST)&item= "O=C(O)CCNS(=O)(=O)c1ccc2[nH]c(=O)[nH]c2c1"
Reply: No

Query: Param readout = ST (inhibition of the synthetase activity); param system = Rel synthetase (ST); param query = CC(NC(=O)c1cc([N+](=O)[O-])c[nH]1)c1ccc2ccccc2c1 (centres unmarked) ; response: value
Reply: Yes

Query: For the record "Cc1c(Cc2ccccc2)c(=O)oc2cc(OCc3nnn[nH]3)c(Cl)cc12" , what value of ST (inhibition of the synthetase activity) is listed for Rel synthetase (ST)?
Reply: Yes

Query: Request - read-out ST (inhibition of the synthetase activity) | tested on Rel synthetase (ST) | molecule "Cc1c(Cc2ccccc2)c(=O)oc2cc(OCc3nnn[nH]3)ccc12"
Reply: Yes

Query: Report ST (inhibition of the synthetase activity) for "Cc1nc(N)ncc1C(=O)NCc1cccc(-c2nnn[nH]2)c1" tested on Rel synthetase (ST).
Reply: No

Query: For the record O=C1N/C(=N\N=C\c2cccc3ccccc23)SC1Cc1ccccc1[N+](=O)[O-] (centres unmarked) , what value of ST (inhibition of the synthetase activity) is listed for Rel synthetase (ST)?
Reply: Yes
